# Tested on: LXFL 529
# assayComment: NCI tumour cell line growth inhibition, 48 h
The source made the active and inactive calls. No stated cut-off is given here; in the data, active = GI50 up to about 1.1 µM and inactive = higher.
Classes used: active, inactive

[[record]]
compound = "O=C(c1ccccc1)c1ccc2n[se]nc2c1"
assignedlabel = "inactive"

[[record]]
compound = "CCOc1ccc(NC(=O)C2=C(C)NC(C)=C(C(=O)Nc3ccc(OCC)cc3)C2c2ccccc2)cc1"
assignedlabel = "inactive"

[[record]]
compound = "O=C1C(Br)=C[C@H]2C3C=CC(Br)(C3=O)[C@@H]12 (stereo partly drawn)"
assignedlabel = "inactive"

[[record]]
compound = "COC(=O)C12OCC34C(CC5C(C)=CC(=O)C(O)C5(C)C3C(O)C1O)OC(=O)C(OC(=O)CC(C)C)C24 (stereo not drawn)"
assignedlabel = "active"

[[record]]
compound = "CCOC(=O)C1=NC(c2ccccc2)(c2ccccc2)OC1=C(Cl)Cl"
assignedlabel = "inactive"

[[record]]
compound = "CO[C@@H]1[C@H](OC(=O)NC(=O)CCl)CC[C@]2(CO2)[C@H]1[C@@]1(C)O[C@@H]1CC=C(C)C"
assignedlabel = "inactive"

[[record]]
compound = "CC1(C)CCC[C@@]2(C)C1CCC1(C)C(CCc3ccoc3)/C(=C/OS(=O)(=O)O)CCC12 (stereo partly drawn)"
assignedlabel = "inactive"

[[record]]
compound = "NC1=NN(c2ccccc2)C(=O)C1/C(=N\\NC(=O)c1cc2ccccc2cc1O)C(=O)Nc1ccc(Cl)c(Cl)c1 (stereo not drawn)"
assignedlabel = "inactive"


====

# System: SK-MEL-5
# assayComment: NCI tumour cell line growth inhibition, 48 h
Activity calls are given as the source filed them. Cut-off read from the data, not from the text of the source: active = GI50 up to about 1.1 µM and inactive = higher.
Classes used: label 1 for active, label 0 for inactive

[[record]]
molecule = "NC1=NN(c2ccccc2)C(=O)C1/C(=N\\NC(=O)c1cc2ccccc2cc1O)C(=O)Nc1ccc(Cl)c(Cl)c1 (configuration not stated)"
tgt = "SK-MEL-5"
assignedlabel = "label 0"

[[record]]
molecule = "Cc1ccc(C)c(C(=O)CC2OC(O)C(Cl)C2Cl)c1 (configuration not stated)"
tgt = "SK-MEL-5"
assignedlabel = "label 0"

[[record]]
molecule = "O=c1c2cc(S(=O)(=O)O)ccc2nc(COc2ccc(Oc3ccc(Cl)cc3Cl)cc2)n1-c1ccc(Oc2ccc(Cl)cc2)cc1Cl"
tgt = "SK-MEL-5"
assignedlabel = "label 0"

[[record]]
molecule = "CC(=O)OC/C=C/Cn1ncc(=O)[nH]c1=O"
tgt = "SK-MEL-5"
assignedlabel = "label 0"

[[record]]
molecule = "CC1(C)OCC(C2OC(On3nnc4ccc(Cl)cc43)C3OC(C)(C)OC23)O1 (configuration not stated)"
tgt = "SK-MEL-5"
assignedlabel = "label 0"

[[record]]
molecule = "C=CCN(c1cc(OCc2ccccc2)c2[nH]cc(C)c2c1)S(C)(=O)=O"
tgt = "SK-MEL-5"
assignedlabel = "label 0"

[[record]]
molecule = "C/C(=N\\Nc1nc2ccccc2o1)c1cc(C)ncn1"
tgt = "SK-MEL-5"
assignedlabel = "label 1"

[[record]]
molecule = "O=C1CCC(=O)c2sccc2N1"
tgt = "SK-MEL-5"
assignedlabel = "label 0"

[[record]]
molecule = "SCc1ccc(CS)s1"
tgt = "SK-MEL-5"
assignedlabel = "label 0"

[[record]]
molecule = "CCN(CC)Cc1cc(Nc2c3ccccc3nc3c4ccccc4n(C)c23)cc(CN(CC)CC)c1O"
tgt = "SK-MEL-5"
assignedlabel = "label 0"

[[record]]
molecule = "CSc1nc(NC2OC(CO)C(O)C(O)C2O)c(N)c(=O)[nH]1 (configuration not stated)"
tgt = "SK-MEL-5"
assignedlabel = "label 0"

[[record]]
molecule = "O=C1Nc2ccccc2C12CCCC2"
tgt = "SK-MEL-5"
assignedlabel = "label 0"

[[record]]
molecule = "Cc1ccc(S(=O)(=O)SCc2ccccc2CSS(=O)(=O)c2ccc(C)cc2)cc1"
tgt = "SK-MEL-5"
assignedlabel = "label 0"

[[record]]
molecule = "COC(=O)/C(C)=N/N=C(\\S)SC"
tgt = "SK-MEL-5"
assignedlabel = "label 0"

[[record]]
molecule = "CCCC(=O)OC1C(C(O)CO)OC2OC(C)(C)OC21 (configuration not stated)"
tgt = "SK-MEL-5"
assignedlabel = "label 0"

[[record]]
molecule = "CCCCCCCCCC[C@@H](OC(C)=O)[C@@H]1CC[C@@H]([C@@H]2CC[C@@H]([C@@H](O)CC#C/C=C/CCCCCCC[C@@]3(Sc4ccccc4)C[C@H](C)OC3=O)O2)O1"
tgt = "SK-MEL-5"
assignedlabel = "label 0"

[[record]]
molecule = "COc1ccc(CC2c3cc(Oc4cc(CC5c6cc(OC)c(OC)cc6CCN5C)ccc4O)c(OC)cc3CCN2C)cc1 (configuration not stated)"
tgt = "SK-MEL-5"
assignedlabel = "label 0"

[[record]]
molecule = "COc1ccc(C#Cn2nnc3ccccc32)cc1"
tgt = "SK-MEL-5"
assignedlabel = "label 0"

[[record]]
molecule = "COc1ccc(/C=C2\\OC(=O)C(Cl)=C2c2ccc(OC)cc2)cc1"
tgt = "SK-MEL-5"
assignedlabel = "label 0"

[[record]]
molecule = "Cn1c(=O)[nH]c2nncnc2c1=O"
tgt = "SK-MEL-5"
assignedlabel = "label 0"

[[record]]
molecule = "C[N+](C)(C)[BH-](Br)C(O)O (configuration not stated)"
tgt = "SK-MEL-5"
assignedlabel = "label 0"

[[record]]
molecule = "Cn1c(N)c(/N=N/c2ccc(S(N)(=O)=O)cc2)c(=O)n(C)c1=O"
tgt = "SK-MEL-5"
assignedlabel = "label 0"


====

# Test system: KM12
# assayComment: NCI tumour cell line growth inhibition, 48 h
Active and inactive are the calls of the source. No stated cut-off is given here; in the data, active = GI50 up to about 1.1 µM and inactive = higher.
Classes used: class 1 for active, class 0 for inactive

[[record]]
compound = "Cc1cn(C2CC(O)C(CO)O2)c(=O)n2nnnc12 (stereo not given)"
assignedlabel = "class 0"

[[record]]
compound = "O=C(Nc1cccc2nsnc12)c1cc2c(cc1Cl)Sc1nccn1S2(=O)=O"
assignedlabel = "class 0"

[[record]]
compound = "COc1cc(C2C(Cl)C(=O)N2NC(=O)c2ccc(N)cc2)cc(Br)c1O (stereo not given)"
assignedlabel = "class 0"

[[record]]
compound = "CSc1nc(CO)c(CO)n1C"
assignedlabel = "class 0"

[[record]]
compound = "[O-]c1c2cc(-[n+]3c(-c4ccccc4)cc(-c4ccccc4)cc3-c3ccccc3)cc1CO[C@@H](c1ccccc1)[C@H](c1ccccc1)OCc1cccc(n1)CO[C@@H](c1ccccc1)[C@H](c1ccccc1)OC2"
assignedlabel = "class 1"

[[record]]
compound = "O=C(/C=C1\\N=C(c2ccccc2)N(c2ccc3c(c2)Sc2cc(N4C(=O)/C(=C/C(=O)/C=C/c5ccccc5)N=C4c4ccccc4)ccc2N3)C1=O)/C=C/c1ccccc1"
assignedlabel = "class 0"

[[record]]
compound = "COc1c(C)c2c(c(C)c1Cl)Oc1c(C=O)c(O)c(Cl)c(C)c1C(=O)O2"
assignedlabel = "class 0"

[[record]]
compound = "CC(=O)Nc1ccc(Cl)c(Cl)c1"
assignedlabel = "class 0"

[[record]]
compound = "CC(C)(C)N1Cc2ccccc2/C(=C/Sc2ccccc2)C1=O"
assignedlabel = "class 0"

[[record]]
compound = "COC(=O)C1=C(OC(=O)/C=C/c2ccccc2)C(C(=O)OC)[C@@]2(O)[C@@H](C(=O)OC)[C@H](C)C[C@@H]1[C@@H]2C(=O)OC (stereo not given in full)"
assignedlabel = "class 0"

[[record]]
compound = "O=C(Nn1cnn2c(=O)c3ccccc3nc2c1=O)c1ccccc1"
assignedlabel = "class 0"

[[record]]
compound = "Cc1cc2c(c(=O)o1)C1=S(SC(c3ccccc3)=C1)S2 (stereo not given)"
assignedlabel = "class 0"

[[record]]
compound = "CSc1nc(NC2OC(CO)C(O)C(O)C2O)c(N)c(=O)[nH]1 (stereo not given)"
assignedlabel = "class 0"

[[record]]
compound = "Cc1ccc(S(=O)(=O)N2CCC(C(=O)O)(c3ccccc3)CC2)cc1"
assignedlabel = "class 0"

[[record]]
compound = "CCOC(=O)C1=NC(c2ccccc2)(c2ccccc2)OC1=C(Cl)Cl"
assignedlabel = "class 0"

[[record]]
compound = "CCCC(=O)Nc1cc(/C=C/C(=O)N2CC(CCl)c3c2cc(OC(C)=O)c2[nH]cc(C)c32)n(C)c1 (stereo not given)"
assignedlabel = "class 1"

[[record]]
compound = "COc1cc(O)c2c(=O)c3ccccc3n(C)c2c1"
assignedlabel = "class 0"

[[record]]
compound = "C[C@H](C(=O)C12CC3CC(CC(C3)C1)C2)[C@H](O)c1ccccc1"
assignedlabel = "class 0"

[[record]]
compound = "O=C1OC(OCC#CCOC2OC(=O)C(Cl)=C2Cl)C(Cl)=C1Cl (stereo not given)"
assignedlabel = "class 0"

[[record]]
compound = "CC(=O)N(CN1C(=O)CCC1C(=O)O)c1cccc(O)c1 (stereo not given)"
assignedlabel = "class 0"

[[record]]
compound = "CC(=O)Nc1cc2c(s1)CCC1CC(=O)NN=C21 (stereo not given)"
assignedlabel = "class 0"

[[record]]
compound = "N#C/C(=C(\\O)C(=O)O)c1ccc(-c2cccc3ccccc23)cc1"
assignedlabel = "class 0"

[[record]]
compound = "O=Cc1ccc(Oc2c3ccccc3nc3ccccc23)cc1"
assignedlabel = "class 0"

[[record]]
compound = "CN(C)Cc1cc(C(=O)/C=C/c2ccc(/C=C/C(=O)c3cc(CN(C)C)c(O)c(CN(C)C)c3)cc2)cc(CN(C)C)c1O"
assignedlabel = "class 0"

[[record]]
compound = "Cc1ccc(-c2nc(Cc3n[nH]c(-c4ccc(C)cc4)n3)n[nH]2)cc1"
assignedlabel = "class 0"

[[record]]
compound = "C1CC2CN(CCCN3CCOCC3)C(C1)O2 (stereo not given)"
assignedlabel = "class 0"

[[record]]
compound = "C=C(CN(C)C)C(=O)c1ccccc1"
assignedlabel = "class 0"

[[record]]
compound = "OC1[C@@H]2[C@@H](O)CCCN2C[C@@H](O)[C@H]1O (stereo not given in full)"
assignedlabel = "class 0"

[[record]]
compound = "CC(=O)c1nc2ccccc2n1CC(=O)c1ccc(Cl)cc1"
assignedlabel = "class 0"

[[record]]
compound = "O=c1[c-](-c2ccccc2)[se]c(-c2ccccc2)[n+]1-c1ccccc1"
assignedlabel = "class 0"

[[record]]
compound = "Cc1ccc2[nH]c3[nH]c(=O)[nH]c(=O)c3c2c1"
assignedlabel = "class 0"

[[record]]
compound = "O=C1C(=O)N(c2cccc(C(F)(F)F)c2)C(=S)N1c1ccccc1"
assignedlabel = "class 0"

[[record]]
compound = "O=C1C=C(Nc2ccc(Br)cc2)c2ccccc2C1=O"
assignedlabel = "class 0"

[[record]]
compound = "CN(C)CCC(=O)N1CCc2c([nH]c3ccccc23)C1c1cccnc1 (stereo not given)"
assignedlabel = "class 0"

[[record]]
compound = "O=C(CC(=O)N(C(=O)/C=C\\c1ccccc1)c1ccc(Cl)cc1)N1N=C(c2ccccc2)C(/N=N/c2cccc([N+](=O)[O-])c2)C1=O (stereo not given)"
assignedlabel = "class 0"

[[record]]
compound = "COC(=O)Cc1cc(OC)c(OC)cc1Br"
assignedlabel = "class 0"

[[record]]
compound = "CCCCCCCCCC[C@@H](OC(C)=O)[C@@H]1CC[C@@H]([C@@H]2CC[C@@H]([C@@H](O)CC#C/C=C/CCCCCCC[C@@]3(Sc4ccccc4)C[C@H](C)OC3=O)O2)O1"
assignedlabel = "class 0"

[[record]]
compound = "O=c1c2cc(I)ccc2nc(Sc2ncccc2[N+](=O)[O-])n1Cc1ccccc1"
assignedlabel = "class 0"

[[record]]
compound = "NC1=CN2c3ccccc3N(CC(=O)N3CCOCC3)C2C=C1 (stereo not given)"
assignedlabel = "class 0"

[[record]]
compound = "O=C1CCc2cc3c(cc21)C(C(=O)O)CC3 (stereo not given)"
assignedlabel = "class 0"


meta.source: ChEMBL document CHEMBL1201862
